Target: Amyloid-beta precursor protein (Homo sapiens)
Settings: at 25 µM
Description: Inhibition of amyloid beta (1 to 42) (unknown origin) self-aggregation at 25 uM measured after 48 hrs by ThT-assay
Would you kindly list inhibition for each of these molecules?
Expressed in %, but write only the number.

Sample CCOC(=O)c1cnc2ccc(F)cc2c1N1CCN(c2cc(C)nc3ncnn23)CC1 ; inhibition observed: 72.9

Sample CCOC(=O)c1cnc2ccc(C)cc2c1N1CCN(c2ncccc2C#N)CC1 ; inhibition observed: 27.3

Sample CCOC(=O)c1cnc2ccc(OC)cc2c1N1CCN(c2cc(C)nc3ncnn23)CC1 ; inhibition observed: 61.6

Sample CCOC(=O)c1cnc2ccc(C)cc2c1N1CCN(c2cc(C)nc3ncnn23)CC1 ; inhibition observed: 52.5

Sample CCOC(=O)c1cnc2c(F)cccc2c1N1CCN(c2ncccc2C#N)CC1 ; inhibition observed: 47.4
